Tested on: SW 982 tumor spheroid viability
Test: Anticancer human tumor SW 982 cell line growth inhibition;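 further: spheroids exposed to compound for 7 days before readout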
Conditions: second compound 0.0949 µM; first compound 0.0316 µM; stronger effect = lower value; spheroids with HUVEC and MSC
Threshold-based label: viability, T/C under 70% gives fulfilled, viability, T/C not under 70% gives not fulfilled.

Please review the entries below; each comes with its answer.
compound	class name
Cc1cc(C)c(CNC(=O)c2cc(-c3ccc(CN4CCOCC4)cc3)cc3c2cnn3C2CCCC2)c(=O)[nH]1 + CC[C@@]1(O)C(=O)OCc2c1cc1n(c2=O)Cc2cc3c(CN(C)C)c(O)ccc3nc2-1	not fulfilled
COc1cc(C)[nH]c(=O)c1CN1CCc2c(Cl)cc(C(OC)C3COC3)c(Cl)c2C1=O (stereo unspecified) + CC[C@@]1(O)C(=O)OCc2c1cc1n(c2=O)Cc2cc3c(CN(C)C)c(O)ccc3nc2-1	fulfilled
CC(C)n1c(=O)n(C)c2cnc3cc(F)c(-c4ccc(OCCCN5CCCCC5)nc4)cc3c21 + CC[C@@]1(O)C(=O)OCc2c1cc1n(c2=O)Cc2cc3c(CN(C)C)c(O)ccc3nc2-1	not fulfilled

For the next question, use this compound.
Determine whether this compound shows viability, T/C lower than 70% (ties excluded): CC1COCCN1c1cc(-c2ccnn2C)c2ccnc(-c3ccn[nH]3)c2n1 (stereo unspecified) + CC[C@@]1(O)C(=O)OCc2c1cc1n(c2=O)Cc2cc3c(CN(C)C)c(O)ccc3nc2-1
fulfilled
